Assay: yeast display, Sf9 membrane polyspecificity reagent, FACS + sequencing; frameworks hold sequencing errors
MEASUREMENT LABEL: polyreactivity (PSR sort gate)

The following sequences have reported results that may help.
QVQLVESGGGLVQAGGSLRLSCAASGIIVYYYAMGWYRPAPGKERELVAAISTSGTRTFYADSVKGRFTISRDNAKKTVYLQMNSLKPEDTAVYYCAARIYKPQRCTSLYRTSGYWGQGTQVTVSS :: high polyreactivity
QVQHEESGGGLVQAGGSLRLSCAASGRTFLQYAMGWYRQAPGKERELVDAITTSGGDTYYSDSVKGRFTISRDNAKNTVYLQMKSLKPEDTAVFYCNADFRVYIPHVPYLVDFYYWGQGTQVTVSS :: low polyreactivity
QVQLVESGGGLVQAGGSLRLSCAASGSTFYIYAMGWYRQAPGKERELVAAISSVGRTSYADSVKGRFTISRDNAKNTVYLQMNSLKPEDTAVYYCAADKVDDSSYVPRTVFRYESDYWGQGTQVTVSS :: low polyreactivity
QVQLVESGGGLVQAGGSLRLSCAASGSIFSVNAMGWYRQAPGKERELVATITAGGGSTNYADSVKVRFTISRDNAKNTVYLQMNSLKPEDTAVYYCAADYWYVSWYDYWGQGTQVTVSS :: low polyreactivity
QVHLVESGGGLVQAGCSLRLICAASGRIFTLYAMGWYRQAPGTEMEFVAAINRGGSTNYADSVKGRFTISRDNAKNTVYLQMNSLKPEVTAVYYCAAITTSRFRTYSYDYWGQGTKVTVSS :: high polyreactivity
QVQLVQSGGGLVQAGGSLRLSCAASGRIFRTYAMGWYRQAPGKERELVAAISSRSGSTYYADSVKGRFTISRDNAKNTVYLQMQSLKPEDTAVYYCASRYGYRYADKGSEYGYWGQGTLVTVSS :: high polyreactivity
QVQLVESGGGLVQAGGSLRLSCAASGRIFQRNAMGWYRQAPGKVWELVAAITSTGVRTYYADSVKGRFTISRDNAKNTVYLQMNSLKPEDSAVYYCNAVGRRVRTWHDYDYWGQGTQVTVSS :: high polyreactivity
QVQLVESGGGLVQAGGSLRLSCAASGSTFDYNAMGWYRQAPGKEMELVAAISRGGNTDYADSVKGRFTISRDNAKNTVYLQMNSLKPEDSAVYYCDADALLEWFDVAYFAYEYWGQGTQVTVSS :: low polyreactivity

# get_value(readout='polyreactivity (PSR sort gate)', item= QVQLVESGGGLVQAGGSLRLSCAASGSTFTEYAMGWYRQAPGKERELVAAITNSGSSTNYEDSVKGRFTISRDNAKNTVYLQMNSLKPEDTAVYYCNASSYPWEYYYLYYGYDYWGQGTQVTVSS )
low polyreactivity

# get_value(readout='polyreactivity (PSR sort gate)', item= QVQLVESGGGLVQAGGSLRLSCAASGRIFGRYAMGWYRQAPGKERELVAAITRSGGNTYYADSVKGRFTISRDNAKNTVYLQMNSLKPEDTAVYYCAVRQLDRRSPKYNYWGQGTQVTVSS )
high polyreactivity

# get_value(readout='polyreactivity (PSR sort gate)', item= QVQLVESGGGLVQAGGSLRLSCASSGRTFRKYAMGWYRQAPGKERELVAGIDTSGGSTFYADSVKGRFTISRDNAKNTVYLQMNSLKPEDTAVYYCNADRHRINRPVILYYWGQGTLVTVSS )
low polyreactivity

Hello, the source for this data is the nanobody polyreactivity screen of Harvey et al. (2022), in case you need it.
